- SYSTEM_UNDER_TEST: Tau peptide Start 1 Stop 20 (Synthetic linear peptide immobilised on a Pepscan array; the attachment to the array cannot be carried by the letters.)
- Sequence (peptide, as listed by the source limits assumed): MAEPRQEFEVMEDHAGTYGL
- RUN_DESCRIPTION: Pepscan ELISA on an array of linear 20-mer Tau 441 peptides
- Parameters: unit not given here
REPORTED_METRIC: peptide ELISA signal (no name or unit printed)
Answer with a number only.

BINDER: PT69 monoclonal antibody (recombinant, mouse IgG2a/kappa) (antibody, V domains shown, also called PT69/PT87; PT69 (PT1B548)) VH: QVQLQQPGAELVKPGASVKMSCKASGYTFTNYWITWVKQRPGQGLEWIGDIYPGSGRTKSNEKFKNKATLTADTSSSTAYMQLSSLTSEDSAVYYCTRRWGLDYWGQGTTLTVSS VL: DIVITQDELSNPVTSGESVSISCRSNKSLLYKDGKTYLNWFLQRPGQSPQLLIYLMSTRASGVSDRFSGSGSGTDFTLEISRVKAEDVGVYYCQQLVDYPLTFGAGTKLELKR
VAL: 30
--
BINDER: PT81 monoclonal antibody (recombinant, mouse IgG2a/kappa) (antibody, V domains shown) VH: QVQLQQPGAELVRPGASVILSCKASGYTFTNSWIHWVKQRPGRVLEWIGRIDPNSGGTRYNENFKSKATLTVDKPSSTAYMQLSSLTSEDSAVYFCSRGVLHDYWGQGTTLTVSS VL: DIVITQDELSNPVTSGESVSISCRSSKSLLYKDGKTYLNWFLQRPGQSPQLLIYLMSTRASGVSDRFSVSGSGTDFTLEISRVQAEDVGVYYCQQLVEYPYTFGGGTKLEIKR
VAL: 43
--
BINDER: PT66 monoclonal antibody (recombinant, mouse IgG2a/kappa) (antibody, V domains shown, also called PT66 (PT1B545)) VH: QVQLQQPGAELVKPGASVKMSCKASGYTFTSYWITWVKQRPGQGLEWIGDIHPGRGSTKSNEKFKSKATLTVDTSSSTAYMQFSSLTSEDSAVYYCARRWGFDYWGQGTTLTVSS VL: DIVITQDELSNPVTSGESVSISCRSSKSLLYKDGKTYLNWFLQRPGQSPQLLIYLMSTRASGVSDRFSGSGSGTDFTLEISRVKAEDVGVYYCQQLVDYPLTFGAGTKLELKR
VAL: 40

Fill in: peptide ELISA signal (no name or unit printed) of PT53 monoclonal antibody (recombinant, mouse IgG2a/kappa) (antibody, V domains shown, also called PT50/PT53) VH: EVKLMESGGGLVQPGASLRLSCAASGFTFTDYYMSWVRQPPGKAPEWLALIRNKANGYTTKYAASVKGRFTISRDNSQNILYLQMNTLRAEDSATYYCVKAVWFAYWGQGTLVTVSA VL: DIVITQDELSNPVTSGESVSISCRSSKSLLYKDGKTYLNWFLQRPGQSPQLLIYLMSTRASGVSDRFSGSGSGTDFTLEISRVKAEDVGVYYCLQLVEYPYTFGGGTKLEIKR is ___
38
